- study-system: Dimer of Gag-Pol polyprotein [489-587] (Human immunodeficiency virus 1, UniProt P12497)
- Construct: 489-587
- assay-notes: Protease Inhibition Assay
- conditions: pH 5.5; 30 °C
measurement-kind: IC50 (nM)

INSERT INTO results (smiles_text, endpoint_result) VALUES
  ('CC(C)(C)OC(=O)N[C@@H](Cc1ccccc1)[C@@H](O)C[C@@H](Cc1ccccc1)C(=O)N[C@@H]1c2ccccc2C[C@@H]1O', 229),
  ('CC(C)(C)OC(=O)N[C@@H](Cc1ccccc1)[C@@H](O)C[C@@H](Cc1ccccc1)C(=O)N[C@H]1c2ccccc2[C@@H](N)[C@H]1O', 1.9),
  ('CC(C)(C)OC(=O)N[C@@H](Cc1ccccc1)[C@@H](O)C[C@@H](Cc1ccccc1)C(=O)N[C@H]1c2ccccc2C[C@H]1C(N)=O', 1.8),
  ('CC(C)(C)OC(=O)N[C@@H](Cc1ccccc1)[C@@H](O)C[C@@H](Cc1ccccc1)C(=O)NC1Cc2ccccc2C1', 19);
